- subject_of_test: CsHCS1 (Cannabis sativa, UniProt H9A1V3, DEL715-715)
- Sequence (H9A1V3 other isoform, or with tags, fused parts or gaps DEL715-715): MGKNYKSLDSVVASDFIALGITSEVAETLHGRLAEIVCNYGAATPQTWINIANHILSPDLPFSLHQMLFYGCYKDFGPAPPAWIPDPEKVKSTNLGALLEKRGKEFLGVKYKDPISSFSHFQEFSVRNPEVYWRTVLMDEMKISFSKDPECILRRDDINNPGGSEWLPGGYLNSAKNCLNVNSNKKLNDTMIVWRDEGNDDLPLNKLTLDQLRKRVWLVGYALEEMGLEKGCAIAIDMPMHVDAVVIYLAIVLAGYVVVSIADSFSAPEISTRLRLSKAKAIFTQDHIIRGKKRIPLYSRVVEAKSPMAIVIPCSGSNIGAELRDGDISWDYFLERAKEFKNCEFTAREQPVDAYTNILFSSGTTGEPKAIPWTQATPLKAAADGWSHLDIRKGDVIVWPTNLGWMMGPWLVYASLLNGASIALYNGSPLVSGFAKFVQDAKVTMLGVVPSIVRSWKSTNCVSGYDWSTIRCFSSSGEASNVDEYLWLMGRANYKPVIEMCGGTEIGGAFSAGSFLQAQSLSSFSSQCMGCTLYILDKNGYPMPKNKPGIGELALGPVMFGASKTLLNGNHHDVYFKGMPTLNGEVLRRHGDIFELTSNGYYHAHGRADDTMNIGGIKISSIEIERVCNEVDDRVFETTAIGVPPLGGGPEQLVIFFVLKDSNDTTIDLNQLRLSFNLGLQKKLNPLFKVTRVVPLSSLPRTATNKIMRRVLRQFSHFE
- test: biochemical
recorded_metric: Ki (mM)

>>> result("CC(C)(COP(=O)(O)OP(=O)(O)OC[C@H]1O[C@@H](n2cnc3c(N)ncnc32)[C@H](O)[C@@H]1OP(=O)(O)O)[C@@H](O)C(=O)NCCC(=O)NCCS [CoA, coenzyme A]")
5.1

* * *

Notes on activity with divalent cation obtained with UniProtKB A0A7J6I5X8.
Sequence (A0A7J6I5X8 entry or part of it): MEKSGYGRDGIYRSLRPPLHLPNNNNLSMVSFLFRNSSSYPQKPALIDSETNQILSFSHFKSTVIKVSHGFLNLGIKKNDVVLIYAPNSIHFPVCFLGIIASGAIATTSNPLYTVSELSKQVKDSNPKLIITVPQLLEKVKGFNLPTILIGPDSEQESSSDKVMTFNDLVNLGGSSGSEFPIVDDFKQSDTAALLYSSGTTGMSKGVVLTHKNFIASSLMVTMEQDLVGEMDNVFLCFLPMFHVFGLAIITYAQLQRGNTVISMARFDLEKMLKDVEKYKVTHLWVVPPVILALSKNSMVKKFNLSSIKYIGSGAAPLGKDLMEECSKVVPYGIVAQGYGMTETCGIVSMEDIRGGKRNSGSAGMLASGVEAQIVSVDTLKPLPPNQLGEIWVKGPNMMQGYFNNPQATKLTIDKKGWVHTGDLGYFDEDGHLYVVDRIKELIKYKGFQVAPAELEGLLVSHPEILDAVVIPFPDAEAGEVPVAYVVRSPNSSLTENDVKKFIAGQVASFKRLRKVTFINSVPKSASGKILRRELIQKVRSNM
recorded_metric: activity with divalent cation

>>> result("[Mn+2]")
"high"
>>> result("[Mg+2]")
"high"
